Source: patent US6476242B1

- System: Tubulin
- TEST NAME: Tubulin Data (Table 1)
- Type: biochemical
- SETUP CONDITIONS: ratio analog/paclitaxel for tubulin data
ASSAY ENDPOINT: anal/PT (beside Tubulin Data)
Give the figure only, with no unit attached.

Some solved cases for reference:
MOLECULE	anal/PT (beside Tubulin Data)
CSC(=S)O[C@@]12CO[C@@H]1C[C@H](O)[C@@]1(C)C(=O)[C@H](OC(C)=O)C3=C(C)[C@@H](OC(=O)[C@H](O)[C@@H](NC(=O)c4ccccc4)c4ccccc4)C[C@@](O)([C@@H](OC(=O)c4cccc(Cl)c4)[C@H]21)C3(C)C [MC-134-238, 2-(m-chlorobenzoyl-4-xanthyl)PT]	3.5
CC(=O)OC1C(=O)C2(C)C(O)CC3OCC3(OC(=O)c3cccc(Cl)c3)C2C(OC(=O)c2cccc(Cl)c2)C2(O)CC(OC(=O)C(O)C(NC(=O)c3ccccc3)c3ccccc3)C(C)=C1C2(C)C (stereo not shown) [MC-134-277, 2-(m-Cl-benzoyl)-4-(m-Cl-benzoyl)PT]	144
CC(=O)OC1C(=O)C2(C)C(O)CC3OCC3(OC(=O)C3CC3)C2C(OC(=O)c2ccc(Cl)cc2Cl)C2(O)CC(OC(=O)C(O)C(NC(=O)c3ccccc3)c3ccccc3)C(C)=C1C2(C)C (stereo not shown) [MC-134-247, 2-(2,4-dichlorobz)-4-cyclopropylCO-PT]	0.7

Lab note: next molecule to report on.
get_value(item= COC(=O)O[C@@]12CO[C@@H]1C[C@H](O)[C@@]1(C)C(=O)[C@H](OC(C)=O)C3=C(C)[C@@H](OC(=O)[C@H](O)[C@@H](NC(=O)c4ccccc4)c4ccccc4)C[C@@](O)([C@@H](OC(=O)c4cccc(C)c4)[C@H]21)C3(C)C [MC-134-68, 2-(m-methylbenzoyl)-4-MeOCO-PT] , readout=anal/PT (beside Tubulin Data)) returns 0.8

====

- Tested on: Tubulin
- TEST NAME: Tubulin Data (Table 1)
- Type: biochemical
- SETUP CONDITIONS: ratio analog/paclitaxel for tubulin data
ASSAY ENDPOINT: anal/PT (beside Tubulin Data)
Field format: numeric only.

Field: example entries. Status: answers known.
COMPOUND	ASSAY ENDPOINT	QUANTITATIVE READOUT
CC(=O)O[C@H]1C(=O)[C@@]2(C)[C@H]([C@H](OC(=O)c3ccccc3)[C@]3(O)C[C@H](OC(=O)[C@H](O)[C@@H](NC(=O)c4ccccc4)c4ccccc4)C(C)=C1C3(C)C)[C@]1(OC(C)=O)CO[C@@H]1C[C@@H]2O [paclitaxel (PT), paclitaxel, reference compound]	anal/PT (beside Tubulin Data)	1
CC(=O)O[C@H]1C(=O)[C@@]2(C)[C@H]([C@H](OC(=O)c3cccc(Cl)c3)[C@]3(O)C[C@H](OC(=O)[C@H](O)[C@@H](NC(=O)c4ccccc4)c4ccccc4)C(C)=C1C3(C)C)[C@]1(OC(=O)C3CC3)CO[C@@H]1C[C@@H]2O	anal/PT (beside Tubulin Data)	0.06

compound CSC(=S)O[C@@]12CO[C@@H]1C[C@H](O)[C@@]1(C)C(=O)[C@H](OC(C)=O)C3=C(C)[C@@H](OC(=O)[C@H](O)[C@@H](NC(=O)c4ccccc4)c4ccccc4)C[C@@](O)([C@@H](OC(=O)c4cccc(N=[N+]=[N-])c4)[C@H]21)C3(C)C , anal/PT (beside Tubulin Data) observed: 42
